test: recombinant UMI read abundance after kanamycin selection (control-corrected) (log10(CPM+1)); higher = more efficient recombination; extreme values may be limits of the assay; sequences stand for … in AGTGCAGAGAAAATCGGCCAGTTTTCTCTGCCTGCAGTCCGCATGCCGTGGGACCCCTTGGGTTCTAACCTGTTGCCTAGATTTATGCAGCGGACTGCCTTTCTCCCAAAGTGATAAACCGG…AGGTTGGTTTCACT; site = the 11-nt donor
Entry flag: yes if recombinant UMI read abundance (log10) reaches 0.02; no if it does not.

GACTAGCCATGGACCGGTTTTCCCGGTAATCCGTATTTGAA (site GACTAGCCTTT) ... no
AATCATACATGGACCGGTTTTCCCGGTAATCCGTATTTGGT (site AATCATACTAC) ... yes
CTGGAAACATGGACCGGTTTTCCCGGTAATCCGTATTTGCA (site CAGGAAACTTG) ... yes
ACCCCAACATGGACCGGTTTTCCCGGTAATCCGTATTTGTA (site ACCCCAACTTA) ... yes
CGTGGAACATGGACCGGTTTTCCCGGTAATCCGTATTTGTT (site CTTGGAACTAA) ... no
TACCGTCCATGGACCGGTTTTCCCGGTAATCCGTATTTGAT (site AACCGTCCTAT) ... no
CGTCGAACATGGACCGGTTTTCCCGGTAATCCGTATTTGTT (site CGTGGAACTAA) ... no
TACATGACATGGACCGGTTTTCCCGGTAATCCGTATTTGGT (site TACATGACTAC) ... yes
TGAGGACCATGGACCGGTTTTCCCGGTAATCCGTATTTGGG (site CGAGGACCTCC) ... no
CGCTGTACATGGACCGGTTTTCCCGGTAATCCGTATTTGCT (site CGCTGTACTAG) ... yes
TCCCCCGCATGGACCGGTTTTCCCGGTAATCCGTATTTGCG (site TCCGCCGCTCG) ... no
CAACCCGCATGGACCGGTTTTCCCGGTAATCCGTATTTGTT (site CAACCCGCTAA) ... yes
CGGATTCCATGGACCGGTTTTCCCGGTAATCCGTATTTGCT (site CGGATTCCTAG) ... no
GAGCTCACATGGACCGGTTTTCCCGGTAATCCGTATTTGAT (site GAACTCACTAT) ... yes
TAGTAATCATGGACCGGTTTTCCCGGTAATCCGTATTTGCG (site TAGAAATCTCG) ... yes
CTAGGTTCATGGACCGGTTTTCCCGGTAATCCGTATTTGCG (site CTAGGTTCTCG) ... yes
CAATGCTCATGGACCGGTTTTCCCGGTAATCCGTATTTGAT (site CAATGCTCTCT) ... yes
TTATACTCATGGACCGGTTTTCCCGGTAATCCGTATTTGCA (site TAATACTCTTG) ... yes

====

Below is a list of entries, each paired with its recorded recombinant barcode read abundance (log10) value.
assay: recombinant barcode read abundance after kanamycin selection (control-corrected) (log10(CPM+1)); higher = more efficient recombination; sequences stand for … in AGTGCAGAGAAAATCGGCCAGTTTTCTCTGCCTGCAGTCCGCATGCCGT…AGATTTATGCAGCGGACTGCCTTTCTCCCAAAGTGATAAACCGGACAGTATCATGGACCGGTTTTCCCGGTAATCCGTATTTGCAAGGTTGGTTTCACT; site = the 11-nt target
quantityName: recombinant barcode read abundance (log10)

TATTGGACTTGGGTTCTAACCTGTTGCTT (site GATTGGACTAA) ... 0.0435
GACTGGCCTTGGGTTCTAACCTGTTGCTT (site GACTGGGCTCA) ... 0.154
TAGAAGGCTTGGGTTCTAACCTGTTGCCT (site TAGAAGGCTAC) ... 0.1
AGCAGAGCTTGGGTTCTAACCTGTTGCGG (site AGCAGAGCTCA) ... 1.12
GGCCGGGCTTGGGTTCTAACCTGTTGCCT (site GGCCGGTCTAG) ... 0.0839

====

experiment: recombinant barcode read abundance after kanamycin selection (control-corrected) (log10(CPM+1)); higher = more efficient recombination; sequences stand for … in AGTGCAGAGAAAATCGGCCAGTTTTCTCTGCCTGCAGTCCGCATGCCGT…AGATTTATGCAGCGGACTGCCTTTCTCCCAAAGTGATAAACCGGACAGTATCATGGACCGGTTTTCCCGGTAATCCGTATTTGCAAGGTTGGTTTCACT; site = the 11-nt target
quantityName: recombinant barcode read abundance (log10)

TGAAACTCTTGGGTTCTAACCTGTTGCGG (site GTCGGTCCTGT) ... 0.27
GTAAAACCTTGGGTTCTAACCTGTTGCCT (site GTAAAACCTAG) ... 1.06
AGGCGTCCTTGGGTTCTAACCTGTTGCCG (site AGGCGTCCTGG) ... 0.227
AGGTTCCCTTGGGTTCTAACCTGTTGCGG (site CTAGGAACTTA) ... 0.11
ACATGGTCTTGGGTTCTAACCTGTTGCGT (site ACTGGGTCTAC) ... 0.115

====

Below is a list of entries, each paired with its recorded recombinant barcode read abundance (log10) value.
experiment: recombinant barcode read abundance after kanamycin selection (control-corrected) (log10(CPM+1)); higher = more efficient recombination; sequences stand for … in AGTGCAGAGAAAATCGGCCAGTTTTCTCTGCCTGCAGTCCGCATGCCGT…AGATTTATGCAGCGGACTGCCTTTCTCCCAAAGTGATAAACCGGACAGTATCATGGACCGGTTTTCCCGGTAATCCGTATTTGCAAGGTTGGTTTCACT; site = the 11-nt target
quantityName: recombinant barcode read abundance (log10)

TTGGTAGCTTGGGTTCTAACCTGTTGCCT (site TTGGCAGCTAG) ... 0.148
GATAGTGCTTGGGTTCTAACCTGTTGCCT (site GATAGTGCTAG) ... 0.536
ACCTGCCCTTGGGTTCTAACCTGTTGCCT (site ACCTGGCCTAG) ... 0.0614
GCCGAGTCTTGGGTTCTAACCTGTTGCTG (site GCCGAGTCTGA) ... 0
GAGAACACTTGGGTTCTAACCTGTTGCCT (site CAGAACACTAG) ... 0.439
TTGCCTTCTTGGGTTCTAACCTGTTGCCT (site TAGCCTTCTAG) ... 0.106
CGTAAACCTTGGGTTCTAACCTGTTGCGT (site CGTTAACCTAC) ... 0.393
CACACTCCTTGGGTTCTAACCTGTTGCAG (site CAGACGCCTCT) ... 0.193
TGGAGCACTTGGGTTCTAACCTGTTGCCT (site TGGAGCACTAG) ... 1.11
CGTACCTCTTGGGTTCTAACCTGTTGCTG (site CGTACCTCTCA) ... 0.164

====

assay: recombinant UMI read abundance after kanamycin selection (control-corrected) (log10(CPM+1)); higher = more efficient recombination; extreme values may be limits of the assay; sequences stand for … in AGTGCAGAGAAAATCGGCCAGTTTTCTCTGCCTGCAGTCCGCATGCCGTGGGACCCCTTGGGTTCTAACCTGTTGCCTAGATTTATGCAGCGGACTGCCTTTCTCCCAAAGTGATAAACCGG…AGGTTGGTTTCACT; site = the 11-nt donor
quantityName: recombinant UMI read abundance (log10)

GGATTGACATGGACCGGTTTTCCCGGTAATCCGTATTTGCC (site GGATAGACTGG) ... 1.42
GCGAAACCATGGACCGGTTTTCCCGGTAATCCGTATTTGGG (site GCGAACCCTCC) ... 0.0118
TACTTGACATGGACCGGTTTTCCCGGTAATCCGTATTTGCA (site TACTTGACTAG) ... 0
TAGGAATCATGGACCGGTTTTCCCGGTAATCCGTATTTGCC (site TAGGAATCTGG) ... 2.68
ACGGCCCCATGGACCGGTTTTCCCGGTAATCCGTATTTGTG (site ACGGCCCCTCA) ... 0.0276
CGATCAGCATGGACCGGTTTTCCCGGTAATCCGTATTTGCT (site CGATCAGCTAG) ... 1.61
AGGCGTGCATGGACCGGTTTTCCCGGTAATCCGTATTTGGA (site AGGCGTGCTTC) ... 0.745
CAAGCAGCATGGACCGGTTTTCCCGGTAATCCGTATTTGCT (site CAGGCAGCTAG) ... 0.00336
GTCAACACATGGACCGGTTTTCCCGGTAATCCGTATTTGTC (site GTCAACACTGA) ... 2.35

====

experiment: recombinant barcode read abundance after kanamycin selection (control-corrected) (log10(CPM+1)); higher = more efficient recombination; sequences stand for … in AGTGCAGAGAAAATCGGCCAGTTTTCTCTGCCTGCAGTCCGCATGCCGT…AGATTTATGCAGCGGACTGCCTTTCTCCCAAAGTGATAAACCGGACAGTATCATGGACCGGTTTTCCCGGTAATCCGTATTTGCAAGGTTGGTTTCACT; site = the 11-nt target
quantityName: recombinant barcode read abundance (log10)

GGGAACCCTTGGGTTCTAACCTGTTGCTA (site GGGAACCCTAA) ... 0.147
CCGAGTCCTTGGGTTCTAACCTGTTGCCT (site CCGAGTCCTAG) ... 0.246
AACTAAACTTGGGTTCTAACCTGTTGCCT (site AACTAAACTAG) ... 1.02
CGGCACACTTGGGTTCTAACCTGTTGCGG (site CGGCACACTCC) ... 1.86
CAAGTCGCTTGGGTTCTAACCTGTTGCCT (site CAAGTGGCTAG) ... 0.458
GAGCGCTCTTGGGTTCTAACCTGTTGCTC (site GAGCGCTCTTA) ... 0.381
ACTAAACCTTGGGTTCTAACCTGTTGCCT (site ACTAAACCTAG) ... 0.866
GAGTGTTCTTGGGTTCTAACCTGTTGCTT (site GAGTGTTCTAA) ... 0.277
ACAACCTCTTGGGTTCTAACCTGTTGCCG (site ACAACCTCTCG) ... 1.23
GCTACCTCTTGGGTTCTAACCTGTTGCCT (site GCTACCTCTAG) ... 1.6
AGGTACACTTGGGTTCTAACCTGTTGCAC (site AGGTACACTGT) ... 2.22
GGTTCTCCTTGGGTTCTAACCTGTTGCCT (site AGTTCTCCTAG) ... 0.0625
CTCATTCCTTGGGTTCTAACCTGTTGCTT (site CTCATTCCTAA) ... 0.211
CTAGTGTCTTGGGTTCTAACCTGTTGCTA (site CTAGTGTCTTA) ... 2.72
GTGTATCCTTGGGTTCTAACCTGTTGCAT (site GTGTATCCTAT) ... 1.7
CGATTAGCTTGGGTTCTAACCTGTTGCCT (site CGATTACCTAG) ... 0.038
CATCGGGCTTGGGTTCTAACCTGTTGCAG (site CATCGGGCTCT) ... 1.43
CCTGGGCCTTGGGTTCTAACCTGTTGCCT (site CATGGGCCTAG) ... 0.0944
AGGAGTCCTTGGGTTCTAACCTGTTGCTG (site AGGAGTCCTCA) ... 2.08
TGATAGACTTGGGTTCTAACCTGTTGCAC (site AGAGAGACTGT) ... 0.0172
CTGTTCCCTTGGGTTCTAACCTGTTGCGG (site CTGCTCCCTCC) ... 0.797
CTCCATTCTTGGGTTCTAACCTGTTGCCT (site CTCCATGCTAG) ... 0.129
CTATTCACTTGGGTTCTAACCTGTTGCCT (site CTATTCACTAG) ... 1.34
CGTAAGACTTGGGTTCTAACCTGTTGCCT (site CGTTAGACTAG) ... 0.0104
TGGGACTCTTGGGTTCTAACCTGTTGCCT (site TGTGACTCTAG) ... 0.108
TAGGGTTCTTGGGTTCTAACCTGTTGCGG (site TAGGGTTCTCC) ... 3.01
GCGAACCCTTGGGTTCTAACCTGTTGCGG (site GCTAACCCTAC) ... 0.0412
ATAGCGACTTGGGTTCTAACCTGTTGCCT (site ATAGCAACTAG) ... 1.18
AAAGGGTCTTGGGTTCTAACCTGTTGCCT (site AAAGGGTCTAG) ... 1.8
ACAGGATCTTGGGTTCTAACCTGTTGCTT (site ACAGGATCTAA) ... 2.18
TATCCGACTTGGGTTCTAACCTGTTGCCA (site TATCCGACTCG) ... 0.142
CCTAGAACTTGGGTTCTAACCTGTTGCCT (site CCTAGAACTAG) ... 0.134
ACATGTCCTTGGGTTCTAACCTGTTGCCT (site ACATGTCCTAC) ... 0.0127
ACCGAGGCTTGGGTTCTAACCTGTTGCCT (site ACCGAGGCTAG) ... 0.824
GGTCATTCTTGGGTTCTAACCTGTTGCCT (site GGTCATGCTAG) ... 0.0124
CTTCGGACTTGGGTTCTAACCTGTTGCTT (site CTTCGGACTAA) ... 0.769
CTATGTGCTTGGGTTCTAACCTGTTGCAT (site CTATGTGCTAC) ... 0.168
CACGATCCTTGGGTTCTAACCTGTTGCTT (site AGTCGGACTGT) ... 0.11
CTAGTGACTTGGGTTCTAACCTGTTGCGA (site CTAGTGACTCC) ... 0.576
CTTTCACCTTGGGTTCTAACCTGTTGCCT (site CTTTCGTCTAG) ... 0.0614
CATAATTCTTGGGTTCTAACCTGTTGCCT (site CATCATTCTAG) ... 0
CCGCATACTTGGGTTCTAACCTGTTGCCT (site CTGCATACTAG) ... 0.559

Data provenance: the supplement of paper PMC11208160
